MTD listing for selected compounds.
Test: in vivo
Settings: mouse, ip
Number in mg/kg, nothing else.

Examples with their reported MTD follow.
Compound	MTD (mg/kg)
O=P(O)(NCCCl)NCCCl [IPM, isophosphoramide mustard]	100
O=P1(NCCCl)OCCCN1CCCl (stereo not drawn) [Ifos, ifosfamide]	300

Then there is this compound:
What does the record list as MTD for O=P1(N(CCCl)CCCl)NCCCO1 (stereo not drawn) [CPA, cyclophosphamide] ?
200

* * *

Test system: MCF-7 mammary tumor xenograft
Design: species or system human
Settings: in vivo, sc
Observation Type: Days delay (T-C)
I only need the number, thanks.

Examples with their reported Days delay (T-C) follow.
Compound	Days delay (T-C)
O=P1(N(CCCl)CCCl)NCCCO1 (centres unmarked) [CPA, cyclophosphamide]	6.7
O=P(O)(NCCCl)NCCBr	5.8
CS(=O)(=O)OCCNP(=O)(O)NCCBr	4.7

What does the record list as Days delay (T-C) for O=P(O)(NCCCl)NCCCl [IPM, isophosphoramide mustard] ?
33.9

What does the record list as Days delay (T-C) for N[C@@H](Cc1ccc(N(CCCl)CCCl)cc1)C(=O)O ?
28.1

What does the record list as Days delay (T-C) for O=P(O)(NCCBr)NCCBr ?
1.7

* * *

MTD listing for selected molecules.
Assay: in vivo
Conditions: mouse, ip, MTD Dosage (highest non-toxic dose, LD10 or less)
Number in mg/kg, nothing else.

Molecule	Result Unit	Value
O=P(O)(NCCCl)NCCCl [IPM, isophosphoramide mustard]	mg/kg	100

Then there is this molecule:
What does the record list as MTD for O=P1(NCCCl)OCCCN1CCCl (centres unmarked) [Ifos, ifosfamide] ?
431

* * *

Test: in vivo
Conditions: mouse, ip
Observation Type: MTD (mg/kg)
Number in mg/kg, nothing else.

What does the record list as MTD for O=P1(N(CCCl)CCCl)NCCCO1 (stereo not shown) [CPA, cyclophosphamide] ?
200
